- method: cytotoxicity in HPDE-C7 cells, cell-based, fluorescence, HTS (AID 430);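 also: cells exposed to compound for 48 hours before viability readout; 0% = vehicle and 100% = reference cytotoxic drug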
- condition context: HPDE-C7 pancreatic duct cells viability, at 10 µM, stronger effect = higher value
Hit rate of the full screen: of about 63,000 compounds, about 1,100 (1.7%) were called active. This is one part of a sample in which actives are shown more often than they occur. Measured potencies and affinities stand elsewhere.

| molecule | cytotoxicity / % |
| --- | --- |
| COc1ccc(CCNc2nc(-c3sc(N)nc3C)cs2)cc1OC | 16 |
| Cc1ccc2ncccc2c1NS(=O)(=O)c1ccccc1 | -17.3 |
| Cn1c(Cn2nnc3ccccc32)nnc1SCC(=O)N1c2ccccc2Sc2ccccc21 | -9.1 |
| CCC(=O)Nc1nc(C)nc(C)c1C(C)=O | -5.6 |
| CCOc1ccc(-c2nc(CSCC(=O)N3CCN(C(=O)c4ccco4)CC3)c(C)o2)cc1 | -10.8 |
| CCC(NC(C)C)C(O)c1ccc(O)c(O)c1 (stereo unspecified) | 15.3 |
| COc1cccc(-c2cc(C(=O)Nc3c(C)nn(Cc4ccccc4C)c3C)no2)c1 | -3.2 |
| CC(=O)CSc1ncnc2nc[nH]c12 | 5.4 |
| O=S(=O)(Nc1cccc2ncccc12)c1cccs1 | 45.6 |
| Cc1nc(NCCNC(=O)c2ccco2)c2c(C)c(C)sc2n1 | -13.6 |
| COc1ccccc1Cn1c(=O)c2ccccc2n2c(Sc3ncnc4sccc34)nnc12 | 38.5 |

Value source: PubChem BioAssay AID430
